- SUBJECT_OF_TEST: Estrogen receptor (Homo sapiens, UniProt P03372)
- Sequence (P03372 whole entry): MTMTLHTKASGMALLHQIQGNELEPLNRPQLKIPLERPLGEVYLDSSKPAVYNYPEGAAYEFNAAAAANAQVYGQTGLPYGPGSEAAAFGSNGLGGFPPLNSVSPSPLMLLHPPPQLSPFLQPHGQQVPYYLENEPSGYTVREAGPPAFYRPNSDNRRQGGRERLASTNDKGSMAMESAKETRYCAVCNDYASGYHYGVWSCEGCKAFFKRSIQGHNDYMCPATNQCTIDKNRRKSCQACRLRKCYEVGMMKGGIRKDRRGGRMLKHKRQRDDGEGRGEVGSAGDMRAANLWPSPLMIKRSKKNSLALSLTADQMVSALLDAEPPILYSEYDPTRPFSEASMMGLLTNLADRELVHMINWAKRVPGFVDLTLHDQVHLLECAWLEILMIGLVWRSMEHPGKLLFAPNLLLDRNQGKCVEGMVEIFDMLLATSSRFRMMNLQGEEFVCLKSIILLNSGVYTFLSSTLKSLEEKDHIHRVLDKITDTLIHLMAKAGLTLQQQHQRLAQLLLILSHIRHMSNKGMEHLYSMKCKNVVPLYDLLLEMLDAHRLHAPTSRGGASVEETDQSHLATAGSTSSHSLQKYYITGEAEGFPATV
The compounds listed here are annotated with their pIC50.
Friendly reminder that pIC50 comes from taking -log10 of the concentration in mol/L.

pIC50 reading for CC1Cc2cc(-c3nnn(C)n3)ccc2C(c2c(F)cc(/C=C/C(=O)O)cc2F)N1CC(C)(C)F (stereo not drawn) : 8.13

pIC50 reading for CC1Cc2c(oc3ccc(Br)cc23)C(c2c(F)cc(/C=C/C(=O)O)cc2F)N1CC(C)(C)F (stereo not drawn) : 7.82

pIC50 reading for CC1Cc2cc(-c3cnn(C)c3)c(F)cc2C(c2c(F)cc(/C=C/C(=O)O)cc2F)N1CC(C)(C)F (stereo not drawn) : 8.87

pIC50 reading for CC1Cc2c(oc3cccc(F)c23)C(c2c(F)cc(/C=C/C(=O)O)cc2F)N1CC(C)(C)F (stereo not drawn) : 9.35
